# subject_of_test: Prostaglandin G/H synthase 2 (Homo sapiens) (UniProt P35354)
# Sequence (whole entry): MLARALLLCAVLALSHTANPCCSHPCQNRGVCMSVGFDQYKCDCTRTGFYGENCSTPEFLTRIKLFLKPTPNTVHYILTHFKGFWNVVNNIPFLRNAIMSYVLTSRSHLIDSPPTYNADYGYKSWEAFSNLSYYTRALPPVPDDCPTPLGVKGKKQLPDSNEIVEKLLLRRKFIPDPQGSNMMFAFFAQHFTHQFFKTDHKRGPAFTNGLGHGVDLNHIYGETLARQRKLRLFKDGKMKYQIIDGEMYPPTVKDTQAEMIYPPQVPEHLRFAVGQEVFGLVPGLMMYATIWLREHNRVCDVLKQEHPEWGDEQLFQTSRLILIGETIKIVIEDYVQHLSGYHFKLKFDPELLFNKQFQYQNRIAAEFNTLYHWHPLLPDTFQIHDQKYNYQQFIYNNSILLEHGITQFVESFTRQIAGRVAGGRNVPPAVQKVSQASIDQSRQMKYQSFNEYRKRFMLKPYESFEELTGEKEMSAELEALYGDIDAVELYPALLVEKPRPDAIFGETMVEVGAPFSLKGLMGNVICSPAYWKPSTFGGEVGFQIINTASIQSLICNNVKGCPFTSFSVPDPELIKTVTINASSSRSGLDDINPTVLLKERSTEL
# assay_overview: Inhibition of COX2
The source made the active and inactive calls. The rule behind the calls is not given here.
readout_kind: Activity

cpd_smiles=CN(c1ccc([N+](=O)[O-])cc1OC1CCCCC1)S(C)(=O)=O readout_kind=Activity endpoint_result=inactive
cpd_smiles=CCCOc1cc([N+](=O)[O-])ccc1N(C)S(C)(=O)=O readout_kind=Activity endpoint_result=inactive
cpd_smiles=CN(c1ccc([N+](=O)[O-])cc1OCCC1CCCCC1)S(C)(=O)=O readout_kind=Activity endpoint_result=inactive
cpd_smiles=CN(c1ccc([N+](=O)[O-])cc1OC1CCCC1)S(C)(=O)=O readout_kind=Activity endpoint_result=inactive
cpd_smiles=CC(C)Oc1cc([N+](=O)[O-])ccc1N(C)S(C)(=O)=O readout_kind=Activity endpoint_result=inactive
cpd_smiles=CCC(CC)Oc1cc([N+](=O)[O-])ccc1N(C)S(C)(=O)=O readout_kind=Activity endpoint_result=inactive

Where do the numbers come from? From ChEMBL document CHEMBL1146286.
